Values from PubChem BioAssay (NCI)

Test system: CAKI-1 renal
assay notes: NCI tumour cell line growth inhibition, 48 h
Quick reference for TGI among some molecules

>>> result("CCOC(=O)c1csc(NC(=O)CN2CCN(C)CC2)n1")
"> 100 µM"
>>> result("CC(C)(C)[Si](C)(C)OC1/C(=C/C#N)C(n2ccc(=O)[nH]c2=O)OC1CO (stereo unspecified)")
"> 100 µM"
>>> result("COc1cc(C2c3cc4c(cc3C(O)C(CO)C2CO)OCO4)cc(OC)c1OC (stereo unspecified)")
"> 46.2 µM"
>>> result("C[C@@]12CCC3C1C=C1C(=O)c4cc(O)ccc4C(=O)[C@]1(O2)[C@@]3(C)C=O")
"13.7 µM"
>>> result("CCOC(=O)NC1CN2CCC1CC2 (stereo unspecified)")
"> 100 µM"

Query string: // returns reported TGI for input CN1C(=O)C(CC=O)(C(C)(C)C)c2ccccc21 (stereo unspecified)
Result string: > 100 µM

Query string: Again, but for O=C(O)[C@H](NS(=O)(=O)c1ccc2ccccc2c1)c1ccccc1
Result string: > 100 µM

---

Test system: HS 578T breast
assay notes: NCI tumour cell line growth inhibition, 48 h
quantity: GI50

These recorded examples may help you get a feel for the data.
>>> result("COc1ccccc1N1CCN(CCCn2c(=O)c3c(OC)nc(C)cc3c(=O)n2-c2ccccc2)CC1")
"> 100 µM"
>>> result("Cc1ccc(/C=C/c2c(C(=O)/C=C/c3ccc(C(F)(F)F)cc3)c(C)nc3ccccc23)cc1")
"1.66 µM"

Query string: // returns reported GI50 for input Nc1nccc2c1ccn2-c1ccc(NC(=O)c2ccc(N3CCOCC3)c(C(F)(F)F)c2)cc1
Result string: 0.22 µM

---

Quick reference for TGI among some compounds
Tested on: 786-0 renal
assay notes: NCI tumour cell line growth inhibition, 48 h
State the answer as a number, implicitly in µM.

>>> result("O=C(CC(O)(C(F)(F)F)C(F)(F)F)c1cc(CC(=O)C(O)(C(F)(F)F)C(F)(F)F)cc(CC(=O)C(O)(C(F)(F)F)C(F)(F)F)c1")
4.53

Field: next compound
Query string: // returns reported TGI for input N#CC1(C#N)C2CCCCC23OC(=N)C1(C#N)C(c1ccccc1)O3 (centres undefined)
Result string: 33.7

---

Quick reference for TGI among some molecules
Tested on: UACC-62 melanoma
assay notes: NCI tumour cell line growth inhibition, 48 h

These recorded examples may help you get a feel for the data.
>>> result("CCc1c(OC(C)=O)c2c(NC3OC(COC(C)=O)C(OC(C)=O)C(OC(C)=O)C3OC(C)=O)nc(OC)nc2oc1=O (centres undefined)")
"> 100 µM"
>>> result("CC1=CC(=O)[C@@H](O)[C@]2(C)[C@H]3[C@@]4(O)OC[C@]35[C@H]([C@@H](C)[C@H]4O)[C@@H](O)C(=O)O[C@@H]5C[C@@H]12")
"6.29 µM"
>>> result("O=C1NN=C2C=C(c3ccc(Cl)cc3)CC(c3cccc(Cl)c3)C12 (centres undefined)")
"33.6 µM"

Query string: // returns reported TGI for input O=C1CC(C[C@H](O)C2CCCCC2O)CC(=O)N1Cc1ccccc1 (some centres undefined)
Result string: > 100 µM

Query string: Again, but for Nc1nc2c(ncn2Cc2ccc(CO)cc2)c(=O)[nH]1
Result string: > 100 µM
